molecular target: EGLN3; test: cell-based or functional assay
1 if Activity (%)* is below 60%. -1 if not; exact matches included in -1.

{"columns": ["BINDER", "CAT"],
 "data": [
  ["DTDLDAEAVAPYIPADDDFQ [DTDLDAEAVApYIPADDDFQ]", 1]
]}

Alright, here's another binder for you.
Enquiry: hey, is Activity (%)* for DTDLDLEAFAPYIPADDDFQ [DTDLDLEAFApYIPADDDFQ] lower than 60% or not?
Return: -1
